Listing: melting point of selected compounds

COMPOUND: O=C(Oc1ccccc1)N1CCC(S(=O)(=O)c2ccccc2)C1 (centres undefined)
melting point: 84 to 85 °C

COMPOUND: CCOCc1nnc(C)n1-c1ccc(Cl)cc1C(=O)O
melting point: 173 to 176 °C

COMPOUND: CCN(CC)CCOCCC1CCCCN1C(=O)N1c2ccccc2C(=O)Nc2cccnc21 (centres undefined)
melting point: 134 to 136 °C

COMPOUND: O=C1CC(NC(=O)c2c[nH]c3ccccc23)CCCN1 (centres undefined)
melting point: 243 to 244 °C

COMPOUND: CCC1c2cc(F)ccc2-c2ccccc2N1S(=O)(=O)c1ccc(OC(=O)CC(C)(C)C)cc1 (centres undefined)
melting point: 128 °C

COMPOUND: O=c1oc2cc(OCc3nnn[nH]3)cc(OCc3nnn[nH]3)c2c2c1C(c1ccccc1)CCC2 (centres undefined)
melting point: 153 to 154 °C

COMPOUND: CCNC(=O)N(C)Cc1cccc2c1C(=O)N(C1CCC(=O)NC1=O)C2=O (centres undefined)
melting point: 219 to 221 °C

COMPOUND: C=C[C@H]1C(=O)N(C)[C@H](C(C)(C)C)N1C(=O)c1ccccc1
melting point: 169 to 171 °C

COMPOUND: O=C(O)c1cn(C2CC2)c2c(F)c(N3CC4CCC3CN4)c(F)cc2c1=O (centres undefined)
melting point: 275 to 280 °C
